test: Solubility test of crystal form A in 9 vehicles (HPLC); type: physicochemical; settings: aqueous buffer, thermodynamic from solid; pH 7.4 buffer solution, 37° C., stirring 4 hrs
Reported property: solubility at 4 h
Number plus unit, in that order.

Q: Recall and state the measured solubility at 4 h for CC(C)(Sc1nnc(Br)n1-c1sc(C2CC2)c2c1CCC(F)(F)C2)C(=O)O [crystal form A] .
A: 3820 µg/mL
